Assign TGI to each entry below.
Test system: OVCAR-8 ovarian
test_method_notes: NCI tumour cell line growth inhibition, 48 h

# input Note down TGI recorded for `CNS(=O)(=O)NNS(=O)(=O)c1ccc(OC)cc1`
# output > 100 µM

# input Note down TGI recorded for `Cc1cc(C)c(-c2noc(-c3ccc(Cl)cc3)c2C2=NCCCN2)c(C)c1`
# output > 100 µM

# input Note down TGI recorded for O=C(NCC1CCCO1)c1ccc(NC2=C(Cl)C(=O)N(Cc3ccccc3)C2=O)cc1 (stereo unspecified)
# output 54.6 µM

# input Note down TGI recorded for CC1C2C=C(O)C(=O)C(C2=O)C1c1ccccc1 (stereo unspecified)
# output > 100 µM

# input Note down TGI recorded for `COC(=O)c1cc(NC(=O)Cc2c[nH]c3ccccc23)cn1C`
# output > 100 µM

# input Note down TGI recorded for `Cn1c2c(c3c(Cl)nncc31)Cc1ccccc1-2`
# output > 100 µM

# input Note down TGI recorded for C=C1C(=O)O[C@H]2C1C[C@@H](OC(C)=O)/C(C)=C/CC[C@@]1(C)O[C@H]21 (stereo partly specified)
# output 32.5 µM

# input Note down TGI recorded for `Nc1ccccc1C(=O)CCC1C(=O)NC(=S)NC1=O`
# output > 100 µM

# input Note down TGI recorded for `CCOC(=O)c1nc2ccc(C(F)(F)F)cc2nc1NCc1ccc(OC)c(OC)c1`
# output > 100 µM

# input Note down TGI recorded for `O=C(c1ccccc1)N1CCC(CC2(c3cc4ccccc4[nH]3)OCCO2)CC1`
# output > 100 µM

# input Note down TGI recorded for `C=CCc1c(O)c2nsnc2c2nsnc12`
# output > 10 µM
